The origin of these recorded values is patent US12581252B2.

Target: H1047R PIK3CA enzyme (Homo sapiens, UniProt P42336, H1047R)
Sequence (P42336 whole entry H1047R): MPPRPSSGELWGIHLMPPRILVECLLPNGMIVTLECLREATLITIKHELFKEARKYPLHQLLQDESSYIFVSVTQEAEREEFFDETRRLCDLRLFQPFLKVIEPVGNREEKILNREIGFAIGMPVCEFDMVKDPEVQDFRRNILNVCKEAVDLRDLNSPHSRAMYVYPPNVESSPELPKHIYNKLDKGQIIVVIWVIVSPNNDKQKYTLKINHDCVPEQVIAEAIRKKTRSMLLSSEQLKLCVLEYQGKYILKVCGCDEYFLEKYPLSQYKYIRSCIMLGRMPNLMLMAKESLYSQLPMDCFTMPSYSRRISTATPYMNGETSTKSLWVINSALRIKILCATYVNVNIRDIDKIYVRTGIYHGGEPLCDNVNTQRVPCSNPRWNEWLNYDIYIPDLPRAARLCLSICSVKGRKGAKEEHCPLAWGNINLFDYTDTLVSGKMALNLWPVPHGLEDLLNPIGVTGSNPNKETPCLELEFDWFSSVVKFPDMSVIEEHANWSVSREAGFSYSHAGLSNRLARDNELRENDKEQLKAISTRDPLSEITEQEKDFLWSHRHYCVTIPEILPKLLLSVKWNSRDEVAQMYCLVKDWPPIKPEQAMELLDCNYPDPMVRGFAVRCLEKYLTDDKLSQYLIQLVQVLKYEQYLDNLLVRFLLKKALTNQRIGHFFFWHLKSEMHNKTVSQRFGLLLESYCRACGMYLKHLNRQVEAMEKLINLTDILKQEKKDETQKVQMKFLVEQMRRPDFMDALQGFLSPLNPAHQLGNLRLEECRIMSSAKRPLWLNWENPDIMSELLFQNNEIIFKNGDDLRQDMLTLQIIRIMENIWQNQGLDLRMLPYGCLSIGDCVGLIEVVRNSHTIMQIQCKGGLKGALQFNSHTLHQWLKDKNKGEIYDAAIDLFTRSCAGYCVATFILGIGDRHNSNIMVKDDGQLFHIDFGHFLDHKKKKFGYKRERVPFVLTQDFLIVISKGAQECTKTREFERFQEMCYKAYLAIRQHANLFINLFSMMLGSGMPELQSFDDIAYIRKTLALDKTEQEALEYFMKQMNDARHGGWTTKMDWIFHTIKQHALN
Sequence (P27986 whole entry partner): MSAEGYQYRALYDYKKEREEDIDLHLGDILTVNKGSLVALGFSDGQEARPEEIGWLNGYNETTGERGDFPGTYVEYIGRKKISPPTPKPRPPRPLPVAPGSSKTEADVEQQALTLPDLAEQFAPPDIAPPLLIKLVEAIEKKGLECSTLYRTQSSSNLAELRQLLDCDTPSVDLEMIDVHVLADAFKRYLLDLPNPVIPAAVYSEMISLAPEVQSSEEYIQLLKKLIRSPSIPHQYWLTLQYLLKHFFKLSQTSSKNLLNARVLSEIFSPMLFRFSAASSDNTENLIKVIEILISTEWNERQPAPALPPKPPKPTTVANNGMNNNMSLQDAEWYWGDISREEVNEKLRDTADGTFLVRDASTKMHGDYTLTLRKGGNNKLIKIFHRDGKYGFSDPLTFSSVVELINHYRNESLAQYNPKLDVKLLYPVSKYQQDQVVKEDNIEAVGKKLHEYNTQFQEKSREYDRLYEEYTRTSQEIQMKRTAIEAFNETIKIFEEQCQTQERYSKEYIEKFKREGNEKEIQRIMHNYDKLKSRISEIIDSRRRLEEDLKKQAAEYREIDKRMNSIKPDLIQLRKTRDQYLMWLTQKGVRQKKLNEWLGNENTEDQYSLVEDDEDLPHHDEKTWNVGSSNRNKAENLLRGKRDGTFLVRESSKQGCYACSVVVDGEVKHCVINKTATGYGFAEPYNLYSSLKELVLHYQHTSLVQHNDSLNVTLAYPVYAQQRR
Assay: ADP-Glo Biochemical PIK3CA Kinase Assay
Description: Compounds to be assayed were plated in 16 doses of 1:2 serial dilutions (20 nL volume each well) on a 1536-well plate, and the plate warmed to room temperature. […] To the well was added 1 μL of 200 μM ATP and 20 μM of diC8-PIP2 in Substrate Assay Buffer (50 mM HEPES pH7.4, 50 mM NaCl, 5 mM DTT and 0.03% CHAPS) to start the reaction, and the plate was shaken for 10 seconds, then spun briefly at 1500 rpm, and then incubated for 60 minutes at room temperature. […]
pIC50: −log10 of the molar value.
propertyLabel: pIC50

Reference set (8 entries):
* O=C1N[C@@H](c2cc(F)ccc2Cl)c2c(NC(=O)N3C[C@](O)(C(F)(F)F)c4cc(F)ccc43)cc(F)cc21 (single isomer, unassigned) | 5.00 to 6.00
* CNc1cc(NC(=O)N2C[C@@](O)(C(F)F)c3cc(F)ccc32)c2c(c1)C(=O)N[C@H]2c1cc(F)ccc1Cl (single isomer, unassigned) | 4.00 to 5.00
* O=C(Nc1cc(NC2=NC(C(F)(F)F)CO2)cc2c1C(c1cc(F)ccc1Cl)NC2=O)c1cc(F)cc(C(F)(F)F)c1 (stereo not shown) | ≥ 7.00
* O=C1NC(c2cc(F)ccc2Cl)c2c(NC(=O)C3CCc4ccccc4C3)cccc21 (mixture of isomers) | 4.00 to 5.00
* Cn1cc(-c2cc(NC(=O)c3cc(F)cc(C(F)(F)F)c3)c3c(c2)C(=O)N[C@H]3c2cc(F)ccc2Cl)c(C#N)n1 | ≥ 7.00
* O=C1NC(c2cc(F)ccc2Cl)c2c(Nc3cn[nH]c3)cc(Br)cc21 (stereo not shown) | 4.00 to 5.00
* O=C(Nc1cc(OC2CCOC2)cc2c1C(c1cc(F)ccc1Cl)NC2=O)c1cc(F)cc(C(F)(F)F)c1 (stereo not shown) | ≥ 7.00
* COC(=O)C1CN(C(=O)Nc2cccc3c2C(c2cc(F)ccc2Cl)NC3=O)c2ccccc21 (stereo not shown) | 4.00 to 5.00

The recorded pIC50 for entry Cc1ncc(-c2cc(NC(=O)c3cc(F)cc(C(F)(F)F)c3)c3c(c2)C(=O)N[C@H]3c2cc(F)ccc2Cl)cn1 equals ≥ 7.00

The recorded pIC50 for entry O=C(Nc1cccc2c1C(c1cccc(B(O)O)c1)NC2=O)c1cc(F)cc(C(F)(F)F)c1 (stereo not shown) equals 4.00 to 5.00

The recorded pIC50 for entry O=C(Nc1cc(-c2cnc3ncnn3c2)cc2c1[C@@H](c1cc(F)ccc1Cl)NC2=O)c1cc(F)cc(C(F)(F)F)c1 equals 6.00 to 6.30

The recorded pIC50 for entry O=C(Nc1cccc2c1C(N1CCCCC1)NC2=O)c1cc(F)cc(C(F)(F)F)c1 (stereo not shown) equals 4.00 to 5.00

The recorded pIC50 for entry COc1nccc(N2CC(c3cc(NC(=O)c4cc(F)cc(C(F)(F)F)c4)c4c(c3)C(=O)NC4c3cc(F)ccc3Cl)C2)n1 (stereo not shown) equals ≥ 7.00

---

Catalogue of IC50 values
Molecular target: H1047R PIK3CA enzyme (Homo sapiens, UniProt P42336, H1047R)
Assay: ADP-Glo Biochemical PIK3CA Kinase Assay

The recorded IC50 for entry O=C1NC(c2cc(F)ccc2Cl)c2c(Nc3cccc(=O)[nH]3)cc(Br)cc21 (centres unmarked) [Compound I-1974] equals 1000 to 10000 nM

The recorded IC50 for entry O=C(Nc1cc(Cn2cccn2)cc2c1C(c1cc(F)ccc1Cl)NC2=O)c1cc(F)cc(C(F)(F)F)c1 (centres unmarked) [Compound I-1497] equals ≤ 100 nM

The recorded IC50 for entry NC(=O)COc1ncc(-c2cc(NC(=O)c3cc(F)cc(C(F)(F)F)c3)c3c(c2)C(=O)NC3c2cc(F)ccc2Cl)cn1 (centres unmarked) [Compound I-1416] equals ≤ 100 nM

The recorded IC50 for entry CC(=O)N1CCC[C@H]1COc1cc(NC(=O)c2cc(F)cc(C(F)(F)F)c2)c2c(c1)C(=O)NC2c1cc(F)ccc1Cl (single isomer, unassigned) [Compound I-1466] equals ≤ 100 nM

The recorded IC50 for entry N#Cc1ncc(-c2cc(NC(=O)c3cc(F)cc(C(F)(F)F)c3)c3c(c2)C(=O)N[C@@H]3c2cc(F)ccc2Cl)cn1 [Compound I-980] equals ≤ 100 nM

The recorded IC50 for entry N#CC1(n2cc(-c3cc(NC(=O)c4cc(F)cc(C(F)(F)F)c4)c4c(c3)C(=O)NC4c3cc(F)ccc3Cl)cn2)CC1 (centres unmarked) [Compound I-1800] equals ≤ 100 nM
